Molecular target: T1, FcRL6, overexpressed on 3T3 cells (UniProt Q6DN72 20-434, limits assumed)
T1 construct: whole, on cells
T1 sequence (looked up): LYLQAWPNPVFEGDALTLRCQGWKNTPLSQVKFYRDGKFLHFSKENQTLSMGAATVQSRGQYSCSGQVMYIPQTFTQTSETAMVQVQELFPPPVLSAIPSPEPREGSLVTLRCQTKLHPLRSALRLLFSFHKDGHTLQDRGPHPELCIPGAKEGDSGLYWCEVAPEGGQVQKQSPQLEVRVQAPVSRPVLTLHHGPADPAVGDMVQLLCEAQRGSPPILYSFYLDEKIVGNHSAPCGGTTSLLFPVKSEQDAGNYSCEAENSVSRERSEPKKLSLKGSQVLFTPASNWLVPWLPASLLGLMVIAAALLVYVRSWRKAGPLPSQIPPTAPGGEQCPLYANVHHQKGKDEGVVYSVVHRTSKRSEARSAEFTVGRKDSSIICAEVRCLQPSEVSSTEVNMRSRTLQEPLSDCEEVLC
Test: phage clone on 3T3-FcRL6 cells
quantity measured: binding result

ET200-125 (scFv, screened as phage clone; entry is VL-linker-VH-His tag-HA tag) scFv: NFMLTQPHAVSESPGKTVTISCTRSSGSIASNYVQWYQQRPGSSPRTVIYEDNQRPSGVPGRFSGSIDSSSNSASLTISGLKTEDEADYYCQSYDSTSVLFGGGTKLTVLGSRGGGGSGGGGSGGGGSLEMAEVQLVQSGAEVKKPGSSVKVSCKASGGTFSSNSLSWVRQAPGQGLEWMGRIFPILGITNYAQKFQGRVTITADKSTSTAYMELSSLRSEDTAVYYCARGNYQWYDAFDIWGQGTMVTVSSTSGQAGQHHHHHHGAYPYDVPDYAS
no binding
ET200-005 (scFv, screened as phage clone; entry is VL-linker-VH-His tag-HA tag) scFv: QPVLTQPPSVSVVPGKTARITCGGKNIGSKSVHWYQQKPGQAPVVVIHYDSDRPSGIPERFSGSNSGNTATLTISRVEAGDEADYYCQVWDSSSDHPYVFGTGTKVTVLGSRGGGGSGGGGSGGGGSLEMAQVQLVQSGAEVKKPGASVKVSCKASGYTFTNYGISWVRQAPGQGLEWMGWISAYNGNTNYAHKLQGRVTMTTDTSTSTANMELRSLRPDDTAVYYCARSYFGSHDYWGQGTLVTVSSTSGQAGQHHHHHHGAYPYDVPDYAS
no binding
